The origin of these recorded values is patent US9303012B2.

Reported EC50 values for the following compounds.
biological target: human CB2 receptors (Homo sapiens (Human), UniProt P34972); assay: functional cAMP assay, CHO cells expressing human CB2 receptors
Sequence (P34972 whole entry): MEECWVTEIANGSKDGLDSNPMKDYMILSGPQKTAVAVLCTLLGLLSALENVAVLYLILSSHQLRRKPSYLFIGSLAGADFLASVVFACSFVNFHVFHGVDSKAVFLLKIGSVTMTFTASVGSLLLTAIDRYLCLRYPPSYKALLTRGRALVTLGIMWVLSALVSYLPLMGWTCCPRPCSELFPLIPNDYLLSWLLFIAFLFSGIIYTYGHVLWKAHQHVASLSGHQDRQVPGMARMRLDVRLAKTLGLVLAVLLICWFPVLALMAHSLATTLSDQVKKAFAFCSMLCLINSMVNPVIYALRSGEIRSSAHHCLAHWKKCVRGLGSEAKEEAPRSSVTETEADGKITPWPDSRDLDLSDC
Express your answer in nM, writing the number without its unit.

Some compounds with known EC50 results, for comparison:
CC1(C)CC[C@@H](C(N)=O)N1C(=O)c1ccc(N2CC(F)(F)C2)c(OCC2CC2)n1 :: 112
CCOC(=O)C1C2CN(C(=O)c3ccc(N4CC(F)(F)C4)c(OCC4CC4)n3)CC21 (stereo not shown) :: 757
CC1(O)CCN(C(=O)c2ccc(N3CC(F)(F)C3)c(OCC3CC3)n2)CC1 :: 391

Continue with the compound presented below.
Input: I have this compound here, O=C(c1ccc(C2CC2)c(OCC2CC2)n1)N1CCC(O)(C(F)(F)F)C1 (stereo not shown) , and I need its recorded EC50.
Output: 87.8

* * *

Reported EC50 values for the following compounds.
target: human CB2 receptors (Homo sapiens (Human)); experiment: functional cAMP assay, CHO cells expressing human CB2 receptors
Express your answer in nM, writing the number without its unit.

Input: I have this compound here, "CC1(C)CN(C(=O)c2ccc(N3CC(F)(F)C3)c(OCC3CC3)n2)CCO1" , and I need its recorded EC50.
Output: 55.4

Input: I have this compound here, "COCCN(C(=O)c1ccc(N2CC(F)(F)C2)c(OCC2CC2)n1)C(C)(C)CO" , and I need its recorded EC50.
Output: 856

* * *

molecular target: human CB2 receptors (Homo sapiens (Human)); test: functional cAMP assay, CHO cells expressing human CB2 receptors
pEC50: −log10 of the molar value.
Use 7 as the dividing line for pEC50, with the line itself on the satisfied side and lower values as not satisfied.

Input: Tell me whether pEC50 is at least 7 here: NC(=O)[C@@H]1CC(F)(F)CN1C(=O)c1ccc(C2(F)COC2)c(OCC2CC2)n1 [Example 134]
Output: satisfied

Input: Tell me whether pEC50 is at least 7 here: O=C(c1ccc(N2CC(F)(F)C2)c(OCC2CC2)n1)N1CC(F)(C2CC2)C1 [Example 150]
Output: satisfied

* * *

target: human CB1 receptors (Homo sapiens (Human), UniProt P21554); test: functional cAMP assay, CHO cells expressing human CB1 receptors
Sequence (P21554 whole entry): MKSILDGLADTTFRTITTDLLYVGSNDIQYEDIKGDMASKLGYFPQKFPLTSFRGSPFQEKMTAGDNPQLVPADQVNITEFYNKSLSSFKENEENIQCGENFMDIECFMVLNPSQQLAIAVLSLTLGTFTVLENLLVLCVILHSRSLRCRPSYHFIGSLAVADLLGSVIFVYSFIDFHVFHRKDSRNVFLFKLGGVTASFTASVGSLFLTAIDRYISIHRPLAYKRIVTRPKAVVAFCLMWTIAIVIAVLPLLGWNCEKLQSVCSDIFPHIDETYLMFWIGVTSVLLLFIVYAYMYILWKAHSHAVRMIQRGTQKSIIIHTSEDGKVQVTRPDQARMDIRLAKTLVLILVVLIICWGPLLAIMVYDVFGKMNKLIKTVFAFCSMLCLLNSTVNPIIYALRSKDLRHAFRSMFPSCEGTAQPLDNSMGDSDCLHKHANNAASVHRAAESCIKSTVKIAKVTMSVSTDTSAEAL
pEC50: −log10 of the molar value.
READOUT_KIND: pEC50

Some compounds with known pEC50 results, for comparison:
CN(C)C(=O)c1ccc(N2CC(F)(F)C2)c(OCC2CC2)n1 :: < 5.00
NC(=O)[C@@H]1C[C@H](O)CN1C(=O)c1ccc(N2CC(F)(F)C2)c(OCC2CC2)n1 :: < 5.00
Cc1nnc(CN(C(=O)c2ccc(N3CC(F)(F)C3)c(OCC3CC3)n2)C2CC2)o1 :: < 5.00
NC(=O)[C@@H]1CSCN1C(=O)c1ccc(C2CC2)c(OCC2CC2)n1 :: < 5.00
O=C(c1ccc(N2CC(F)(F)C2)c(OCC2CC2)n1)N1C[C@H]2COC[C@H]2C1 :: < 5.00

Continue with the compound presented below.
Input: I have this compound here, "CC(C)CS(=O)(=O)c1nc(C(=O)N2CCCC2(C)C)ccc1C1CC1" , and I need its recorded pEC50.
Output: < 5.00

* * *

target: human CB2 receptors (Homo sapiens (Human), UniProt P34972); experiment: functional cAMP assay, CHO cells expressing human CB2 receptors
Reported EC50 values for the following molecules.
Express your answer in nM, writing the number without its unit.

Some molecules with known EC50 results, for comparison:
O=C(c1ccc(N2CC(F)(F)C2)c(OCC2CC2)n1)N1C[C@@H]2C[C@H]1CS2 [Example 62] :: 9.1
CC1(C)CC(C2CCN(C(=O)c3ccc(N4CC(F)(F)C4)c(OCC4CC4)n3)CC2)C(=O)N1 (centres unmarked) [Example 58] :: 594
CC1(C)COCN1C(=O)c1ccc(OCC2CC2)c(Cl)n1 [Example 49] :: 139
O=C(c1ccc(N2CC(F)(F)C2)c(OCC2CC2)n1)N1C[C@@H]2CC[C@H]1C2 [Example 59] :: 14.2

Input: I have this molecule here, CC1(C)C[C@@H](C(N)=O)N(C(=O)c2ccc(C3CC3)c(OCC3CC3)n2)C1 [Example 95] , and I need its recorded EC50.
Output: 10.4

Input: I have this molecule here, O=C(c1ccc(N2CC(F)(F)C2)c(OCC2CC2)n1)N1CC(F)(CO)C1 [Example 148] , and I need its recorded EC50.
Output: 451

Input: I have this molecule here, O=C(OCc1ccccc1)N1CCN(C(=O)c2ccc(N3CC(F)(F)C3)c(OCC3CC3)n2)CC1 [Example 109] , and I need its recorded EC50.
Output: 360

Input: I have this molecule here, Cn1nnnc1CN(C(=O)c1ccc(N2CC(F)(F)C2)c(OCC2CC2)n1)C(C)(C)C [Example 40] , and I need its recorded EC50.
Output: 81.8
